Where do the numbers come from? From patent US10526316B2.

Target or system kinase enzymes (Homo sapiens, UniProt P48736); recorded quantity pKd.
pKd: −log10 of the molar value.
VALUE KIND: pKd

COMPOUND	pKd
CC(Oc1cccc(F)c1)c1cc(C(=O)NCCO)cc2ncc(N3CCOCC3)nc12 (single isomer, unassigned) [Compound 334a]	4.89
CC(Nc1cc(F)cc(F)c1)c1cc(C(=O)NCCOCCN)cc2ncc(N3CCOCC3)nc12 (stereo not drawn) [Compound 149]	5.63

A. CC(Nc1cc(F)cc(F)c1)c1cc(C(=O)N2CCNC(C(F)(F)F)C2)cc2ncc(N3CCOCC3)nc12 (single isomer, unassigned) [Compound 237a]
B. CC(c1cc(C(=O)N2CCOCC2)cc2ncc(N3CCOCC3)nc12)N(C)c1cccc(F)c1 (stereo not drawn) [Compound 105]
C. CN(C)C(=O)c1cc(N2CCC2c2ccc(F)cc2)c2nc(N3CCOCC3)cnc2c1 (single isomer, unassigned) [Compound 397b]
Q: Returns the items ordered by pKd, from maximum to minimum. Arrange the labels as the request states and list them.
Result: A, C, B
(A: 5.30, C: 4.91, B: 4.55)

---

target: PI3Kβ (Homo sapiens, UniProt P42338); construct: purchased DiscoveRx Corporation, San Diego (contract service, KINOMEscan); test: Enzyme binding assay (KINOMEscan, DiscoveRx); conditions: PIK3Cβ_h, read-out: Kd PIK3Cβ_h
Sequence (P42338 whole entry): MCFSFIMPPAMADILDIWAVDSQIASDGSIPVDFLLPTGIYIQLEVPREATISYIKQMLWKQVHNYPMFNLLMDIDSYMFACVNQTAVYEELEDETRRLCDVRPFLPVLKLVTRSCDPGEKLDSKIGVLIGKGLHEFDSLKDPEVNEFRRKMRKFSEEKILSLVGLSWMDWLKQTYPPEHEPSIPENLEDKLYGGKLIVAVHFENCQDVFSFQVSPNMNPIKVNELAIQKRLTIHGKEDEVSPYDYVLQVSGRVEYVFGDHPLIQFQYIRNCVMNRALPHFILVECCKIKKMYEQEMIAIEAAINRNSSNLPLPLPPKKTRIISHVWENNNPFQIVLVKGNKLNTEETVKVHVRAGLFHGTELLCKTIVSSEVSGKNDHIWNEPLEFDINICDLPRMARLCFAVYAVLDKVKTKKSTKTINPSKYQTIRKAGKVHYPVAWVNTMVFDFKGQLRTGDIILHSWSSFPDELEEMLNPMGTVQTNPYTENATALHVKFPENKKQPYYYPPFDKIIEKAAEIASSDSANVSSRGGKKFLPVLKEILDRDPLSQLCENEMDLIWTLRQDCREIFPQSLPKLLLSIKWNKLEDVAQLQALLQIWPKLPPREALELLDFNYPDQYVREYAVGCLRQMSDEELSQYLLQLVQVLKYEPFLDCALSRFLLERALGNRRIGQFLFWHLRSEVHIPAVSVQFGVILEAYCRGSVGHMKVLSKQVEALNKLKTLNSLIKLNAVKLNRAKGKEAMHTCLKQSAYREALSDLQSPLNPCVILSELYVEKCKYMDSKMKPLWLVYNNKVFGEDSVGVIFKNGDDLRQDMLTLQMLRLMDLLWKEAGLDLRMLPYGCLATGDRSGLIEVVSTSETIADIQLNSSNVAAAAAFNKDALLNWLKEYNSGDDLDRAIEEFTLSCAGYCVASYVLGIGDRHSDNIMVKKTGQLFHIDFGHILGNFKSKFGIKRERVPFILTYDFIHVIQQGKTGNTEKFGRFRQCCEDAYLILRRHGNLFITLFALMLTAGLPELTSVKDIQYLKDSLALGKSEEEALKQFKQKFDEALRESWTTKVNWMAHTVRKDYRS
VALUE KIND: Kd (nM)

For orientation, consider the following solved cases.
MOLECULE	EXPERIMENTAL VALUE
CN[C@@H]1CCN(C(=O)c2cc(C(C)Nc3ccc(F)c(F)c3)c3nc(N4CCOCC4)cnc3c2)C1 (single isomer, unassigned) [Compound 371b]	20
Cc1c(F)cccc1CN(C)c1cc(C(=O)N(C)CCNC(C)C)cc2ncc(N3CCOCC3)nc12	15
CNCCNC(=O)c1cc(C(C)Oc2ccc(Cl)c(F)c2)c2nc(N3CCOCC3)cnc2c1 (centres unmarked) [Compound 380a]	1050
CN(C)C(=O)c1cc(C2CCCN2c2cc(F)cc(F)c2)c2nc(N3CCOCC3)cnc2c1 (centres unmarked)	2
[2H]C([2H])(O)C([2H])([2H])NC(=O)c1cc(C(C)Nc2cccc(F)c2)c2nc(N3CCOCC3)cnc2c1 (single isomer, unassigned) [Compound 408b]	324
CN(C)C(=O)c1cc([C@@H]2CCCN2c2cc(F)cc(F)c2)c2nc(N3CCOCC3)cnc2c1	1090
CC(c1cc(C(=O)N2CCOCC2)cc2ncc(N3CCOCC3)nc12)N(C)c1cccc(F)c1 (centres unmarked)	8
CC(Nc1ccc(F)c(F)c1)c1cc(C(=O)NCCN(C)C)cc2ncc(N3CCOCC3)nc12 (centres unmarked) [Compound 281]	0.3
CC(Oc1cccc(F)c1F)c1cc(C(=O)N(C)C)cc2ncc(N3CCOCC3)nc12 (single isomer, unassigned) [Compound 74]	603
CC(Nc1cc(F)cc(F)c1)c1cc(C(=O)N(C)C)cc2ncc(N3CCOCC3)nc12 (single isomer, unassigned) [Compound 12]	0.4

P. CNCCNC(=O)c1cc([C@@H](C)Oc2cccc(F)c2)c2nc(N3CCOCC3)cnc2c1 [Compound 122]
Q. CC(Nc1ccc(F)c(F)c1)c1cc(C(=O)NCC(C)(C)O)cc2ncc(N3CCOCC3)nc12 (single isomer, unassigned) [Compound 348a]
R. CC(Oc1cc(F)ccc1NCCN)c1cc(C(=O)N(C)C)cc2ncc(N3CCOCC3)nc12 (centres unmarked)
S. Fc1cc(F)cc(N2CCCC2c2cncc3ncc(N4CCOCC4)nc23)c1 (centres unmarked) [Compound 23]
Q: Which order do these items take when sorted by rising Kd? List them. Rank them, then answer with their labels in that order.
Result: P, S, R, Q
